# tested on: AVP-V2 sites (Rattus norvegicus, UniProt Q00788)
# Construct: male rat liver (AVP-V1 sites) or kidney medulla (AVP-V2 sites); from tissue; host or cells: male rat kidney medulla, crude membranes
# Sequence (Q00788 whole entry): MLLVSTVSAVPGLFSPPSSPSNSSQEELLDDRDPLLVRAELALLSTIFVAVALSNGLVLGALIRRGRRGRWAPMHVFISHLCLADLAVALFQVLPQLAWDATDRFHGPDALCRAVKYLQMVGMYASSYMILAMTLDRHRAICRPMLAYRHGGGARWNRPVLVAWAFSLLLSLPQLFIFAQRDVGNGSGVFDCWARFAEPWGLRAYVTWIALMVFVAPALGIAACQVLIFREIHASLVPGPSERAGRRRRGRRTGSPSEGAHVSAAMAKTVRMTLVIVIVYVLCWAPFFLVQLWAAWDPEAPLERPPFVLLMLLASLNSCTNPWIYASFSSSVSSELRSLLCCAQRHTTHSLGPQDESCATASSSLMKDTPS
# test name: [^3 H]AVP binding to crude membrane preparation of male rat kidney medulla (AVP-V2 sites)
# condition context: rat kidney medulla membranes, 2 nM [^3 H]AVP; read-out: Receptor Binding Results IC50 (nM) [^3 H]-AVP-V2
Counter-ions that a name gives are not always drawn. Numbered stars: 1 amine (or outer) side, 2 acyl side, 3 side chain; on linkers, the order of the positions; unused ones are H or OH. Square brackets hold non-standard residues; d marks the D form. Peptide text beside a SMILES is read from it. * marks the point of attachment. X8 = Cn1c[n+](C)cc1C[C@@H](N[*:1])C(=O)[*:2]; dPhe(4-NH2) = Nc1ccc(C[C@@H](N)C(=O)O)cc1; dPiz(1,6-dehydro) = O=C(O)[C@H]1CCC=NN1; dNMeY = CN[C@H](Cc1ccc(O)cc1)C(=O)O; NMeI = CC[C@H](C)[C@H](NC)C(=O)O; Pip(4-aza) = O=C(O)[C@@H]1CNCCN1; dNMeF = CN[C@H](Cc1ccccc1)C(=O)O; dPip(4-aza) = O=C(O)[C@H]1CNCCN1; Chg = N[C@H](C(=O)O)C1CCCCC1; Pip = O=C(O)[C@@H]1CCCCN1; dPip = O=C(O)[C@H]1CCCCN1; Orn = NCCC[C@H](N)C(=O)O; dNMeA = CN[C@H](C)C(=O)O; Me2Gly = CN(C)CC(=O)*; Bn = c1ccc(C*)cc1
Readings of IC50 for the listed molecules

Examples with answers:
molecule	IC50
CC[C@H](C)[C@@H]1NC(=O)[C@@H](Cc2ccccc2)NC(=O)[C@@H]2CCCN2C(=O)[C@@H](Cc2ccccc2)NC(=O)[C@@H]2CNCCN2C(=O)[C@H]2CNCCN2C1=O [Example 80] (cyclo(I[dPip(4-aza)][Pip(4-aza)][dF]P[dF]))	> 10000 nM
O=C1N[C@@H](C2CCCCC2)C(=O)N2CCC[C@@H]2C(=O)N2CCC[C@H]2C(=O)N[C@H](Cc2ccccc2)C(=O)N2CCC[C@H]2C(=O)N[C@@H]1Cc1ccccc1 [Example 67] (cyclo([dF]P[dF][Chg][dP]P))	> 10000 nM
CC[C@H](C)[C@@H]1NC(=O)[C@@H](Cc2c[nH]c3ccccc23)NC(=O)[C@@H]2CCCN2C(=O)[C@@H](Cc2c[n+](C)cn2C)NC(=O)[C@@H]2CCCCN2C(=O)[C@H]2CCCCN2C1=O [Example 18] (cyclo(I[dPip][Pip][X8]P[dW]))	> 10000 nM
CC[C@H](C)[C@@H]1NC(=O)[C@@H](Cc2ccccc2)NC(=O)[C@@H]2CCCN2C(=O)[C@@H](Cc2ccccc2)N(C)C(=O)[C@H](CC(=O)O)NC(=O)[C@H]2CCCCN2C1=O [Example 116] (cyclo(D[dNMeF]P[dF]I[dPip]))	> 10000 nM
CC[C@H](C)[C@@H]1NC(=O)[C@@H](Cc2ccccc2)NC(=O)[C@@H]2CCCN2C(=O)[C@@H](Cc2ccc(NC(=O)CN(C)C)cc2)NC(=O)[C@@H]2CCCCN2C(=O)[C@H]2CCCCN2C1=O [Example 49] (cyclo(I[dPip][Pip][dPhe(4-NH2)](Me2Gly)P[dF]))	10000 nM

Suppose we examine the molecule CC[C@H](C)[C@@H]1NC(=O)[C@@H](Cc2ccccc2)NC(=O)[C@@H]2CCCN2C(=O)[C@@H](Cc2ccccc2)N(C)C(=O)[C@H](CCCN)NC(=O)[C@H]2CCC=NN2C1=O [Example 125, acetate salt] (cyclo(I[dPiz(1,6-dehydro)][Orn][dNMeF]P[dF])) ; what IC50 value has been reported?
1600 nM

Quick one: IC50 of CC[C@H](C)[C@@H]1NC(=O)[C@@H](Cc2ccccc2)NC(=O)[C@@H]2CCCN2C(=O)[C@@H](Cc2ccccc2)N(C)C(=O)[C@@H](C)N(C)C(=O)[C@H]2CCCCN2C1=O [Example 6] (cyclo([dF]I[dPip][dNMeA][dNMeF]P)) ?
> 10000 nM

What IC50 value was documented for this molecule, CC[C@H](C)[C@@H]1NC(=O)[C@@H](Cc2ccccc2)NC(=O)[C@@H]2CCCN2C(=O)[C@@H](Cc2ccccc2)NC(=O)[C@H](CC(N)=O)NC(=O)[C@H]([C@@H](C)O)NC1=O [Example 98] (cyclo(ITN[dF]P[dF])) ?
> 10000 nM

Form field: reported IC50 of CC[C@H](C)[C@@H]1NC(=O)[C@@H](Cc2ccccc2)NC(=O)[C@@H]2CCCN2C(=O)C(Cc2cccnc2)NC(=O)[C@@H]2CCCCN2C(=O)[C@H]2CCCCN2C1=O (single isomer, unassigned) [Example 10 (isomer 2)]
10000 nM

I have this molecule here, CC[C@H](C)[C@H]1C(=O)N2CCCC[C@@H]2C(=O)N2CCCC[C@H]2C(=O)N(C)[C@H](Cc2ccccc2)C(=O)N2CCC[C@H]2C(=O)N[C@H](Cc2ccccc2)C(=O)N1C [Example 105] (cyclo([NMeI][dPip][Pip][dNMeF]P[dF])) , and I need its recorded IC50.
> 10000 nM

Fill blank: measured IC50 of the molecule CC[C@H](C)[C@H]1C(=O)N2CCCC[C@@H]2C(=O)N2CCCC[C@H]2C(=O)N(C)[C@H](Cc2ccccc2)C(=O)N2CCC[C@H]2C(=O)N(C)[C@H](C)C(=O)N1C [Example 16] (cyclo([NMeI][dPip][Pip][dNMeF]P[dNMeA])) is ____.
> 10000 nM

So what does the record say about IC50 for CC[C@H](C)[C@@H]1NC(=O)[C@@H](Cc2ccccc2)NC(=O)[C@@H]2CCCN2C(=O)[C@@H](Cc2ccc(OCc3ccccc3)cc2)N(C)C(=O)[C@@H]2CCCCN2C(=O)[C@H]2CCCCN2C1=O [Example 28] (cyclo(I[dPip][Pip][dNMeY](Bn)P[dF])) ?
10000 nM

Reported IC50, molecule CC[C@H](C)[C@@H]1NC(=O)[C@@H](Cc2c[nH]c3ccccc23)NC(=O)[C@@H]2CCCN2C(=O)[C@@H](Cc2ccc(OCc3ccccc3)cc2)N(C)C(=O)[C@@H]2CCCCN2C(=O)[C@H]2CCCCN2C1=O [Example 33] (cyclo(I[dPip][Pip][dNMeY](Bn)P[dW])) : ____
> 10000 nM

Which value of IC50 has been reported for CCOc1ccc(C[C@H]2NC(=O)[C@@H]3CCCN3C(=O)[C@@H](Cc3ccccc3)NC(=O)[C@H](CC(N)=O)NC(=O)[C@@H]([C@H](C)O)NC(=O)[C@H]([C@@H](C)CC)NC2=O)cc1 [Example 99] (cyclo([dY](Et)I[dT]N[dF]P)) in the records?
> 10000 nM

Field request: IC50 | item: CC[C@H](C)[C@@H]1NC(=O)[C@@H](Cc2c[nH]cn2)NC(=O)[C@@H]2CCCN2C(=O)[C@@H](Cc2ccccc2)N(C)C(=O)[C@@H]2CCCCN2C(=O)[C@H]2CCCCN2C1=O [Example 4] (cyclo(I[dPip][Pip][dNMeF]P[dH]))
> 10000 nM

* * *

# tested on: AVP-V2 sites (Rattus norvegicus)
# Construct: male rat liver (AVP-V1 sites) or kidney medulla (AVP-V2 sites); from tissue; host or cells: male rat kidney medulla, crude membranes
# test name: [^3 H]AVP binding to crude membrane preparation of male rat kidney medulla (AVP-V2 sites)
# condition context: Receptor Binding Results IC50 (nM) [^3 H]-AVP-V2
Numbered stars: 1 amine (or outer) side, 2 acyl side, 3 side chain; on linkers, the order of the positions; unused ones are H or OH. Square brackets hold non-standard residues; d marks the D form. Peptide text beside a SMILES is read from it. * marks the point of attachment. X2 = O=C(OCc1ccccc1)N1CCN([*:1])[C@H](C(=O)[*:2])C1; Ethyl(2-morpholino) = C1CN(CC*)CCO1; dNMeY = CN[C@H](Cc1ccc(O)cc1)C(=O)O; Pip(4-aza) = O=C(O)[C@@H]1CNCCN1; Pip = O=C(O)[C@@H]1CCCCN1; dPip = O=C(O)[C@H]1CCCCN1; Nle = CCCC[C@H](N)C(=O)O
observed property: IC50

compound	tested on	observed property	result
CC[C@H](C)[C@@H]1NC(=O)[C@@H](Cc2ccccc2)NC(=O)[C@@H]2CCCN2C(=O)[C@@H](Cc2ccc(OCCN3CCOCC3)cc2)N(C)C(=O)[C@@H]2CCCCN2C(=O)[C@H]2CCCCN2C1=O [Example 50] (cyclo(I[dPip][Pip][dNMeY](Ethyl(2-morpholino))P[dF]))	AVP-V2 sites (Rattus norvegicus)	IC50	> 1000 nM

Consider the compound CC[C@H](C)[C@@H]1NC(=O)[C@@H](Cc2c[nH]c3ccccc23)NC(=O)[C@@H]2CCCN2C(=O)[C@@H](Cc2c[nH]c3ccccc23)NC(=O)[C@@H]2CNCCN2C(=O)[C@H]2CCCCN2C1=O [Example 88] (cyclo(I[dPip][Pip(4-aza)][dW]P[dW])) and give its measured IC50.
1000 nM

Request the reported IC50 associated with CC[C@H](C)[C@@H]1NC(=O)[C@@H](Cc2c[nH]c3ccccc23)NC(=O)[C@@H]2CCCN2C(=O)[C@@H](Cc2ccccc2)NC(=O)[C@@H]2CN(C(=O)OCc3ccccc3)CCN2C(=O)[C@H]2CCCCN2C1=O [Example 89] (cyclo(I[dPip][X2][dF]P[dW]))
> 1000 nM

Which IC50 is listed for CCCC[C@@H]1NC(=O)[C@@H](Cc2c[nH]c3ccccc23)NC(=O)[C@@H]2CCCN2C(=O)[C@@H](Cc2c[nH]cn2)NC(=O)[C@@H]2CCCCN2C(=O)[C@H]2CCCCN2C1=O [Example 20] (cyclo([Nle][dPip][Pip][dH]P[dW])) ?
> 1000 nM

Data provenance is patent US5225528A.
